- Test summary: Caco-2 cell permeability assay (A-B and B-A)
- Type: in vitro ADME
- Test settings: human, B-A direction
Recorded measurements of Papp B→A at 40 min, 10 μM, one per entry

Solved entries:
Smi	Measured parameter	Observed
CC[C@@H](NC(=O)N1C(=O)[C@H](Cc2ccnc(N)c2)[C@H]1C(=O)N(C)c1ccncc1)c1ccccc1	Papp B→A at 40 min, 10 μM	31 to 50 ×10⁻⁶ cm/s
Cc1ccccc1N(C)C(=O)[C@@H]1[C@@H](Cc2ccnc(N)c2)C(=O)N1C(=O)N[C@@H](C1CCCCC1)C(F)(F)F	Papp B→A at 40 min, 10 μM	≤ 10 ×10⁻⁶ cm/s
CN(C(=O)[C@@H]1[C@@H](Cc2ccnc(N)c2)C(=O)N1C(=O)N[C@@H](C1CCCCC1)C(F)(F)F)c1ncccn1	Papp B→A at 40 min, 10 μM	≤ 10 ×10⁻⁶ cm/s
CC[C@@H](NC(=O)N1C(=O)[C@H](Cc2ccnc(N)c2)[C@H]1C(=O)N(C)c1ccncc1)C1CCCCC1	Papp B→A at 40 min, 10 μM	31 to 50 ×10⁻⁶ cm/s
CN(C(=O)[C@@H]1[C@@H](Cc2ccnc(N)c2)C(=O)N1C(=O)N[C@@H](C1CCCCC1)C(F)(F)F)c1cncnc1	Papp B→A at 40 min, 10 μM	31 to 50 ×10⁻⁶ cm/s
CC[C@@H](NC(=O)N1C(=O)[C@H](Cc2ccnc(N)c2)[C@H]1C(=O)N(C)c1ncccn1)c1cccc(Cl)c1	Papp B→A at 40 min, 10 μM	11 to 30 ×10⁻⁶ cm/s

Prompt line: Return Papp B→A at 40 min, 10 μM for the following molecule: CC[C@@H](NC(=O)N1C(=O)[C@H](Cc2ccnc(N)c2)[C@H]1C(=O)N(C)c1ncncn1)C1CCCCC1
Response line: 11 to 30 ×10⁻⁶ cm/s

Reference source: patent US20190315711A1
